These entries and their values trace back to the supplement of paper PMC10307832.

# relative viability annotations
Test system: HCC-15
Test: relative viability (nuclei count vs DMSO), 5 days (fraction); higher = more cells survive
Conditions: first compound 0.06325 µM
experimental_readout: relative viability

>>> experimental_value("CCNC(=O)c1noc(-c2cc(C(C)C)c(O)cc2O)c1-c1ccc(CN2CCOCC2)cc1 [Luminespib] + CC(=O)c1c(C)c2cnc(Nc3ccc(N4CCNCC4)cn3)nc2n(C2CCCC2)c1=O [Palbociclib] (partner 0.5 µM)")
0.321
>>> experimental_value("CCNC(=O)c1noc(-c2cc(C(C)C)c(O)cc2O)c1-c1ccc(CN2CCOCC2)cc1 [Luminespib] + Nc1nc2[nH]cc(CCc3ccc(C(=O)N[C@@H](CCC(=O)O)C(=O)O)cc3)c2c(=O)[nH]1 [Pemetrexed] (partner 0.2 µM)")
0.193
>>> experimental_value("CCNC(=O)c1noc(-c2cc(C(C)C)c(O)cc2O)c1-c1ccc(CN2CCOCC2)cc1 [Luminespib] + Cc1nc(Nc2ncc(C(=O)Nc3c(C)cccc3Cl)s2)cc(N2CCN(CCO)CC2)n1 [Dasatinib] (partner 0.075 µM)")
0.084
>>> experimental_value("CCNC(=O)c1noc(-c2cc(C(C)C)c(O)cc2O)c1-c1ccc(CN2CCOCC2)cc1 [Luminespib] + CC(=O)Nc1cccc(-n2c(=O)n(C3CC3)c(=O)c3c(Nc4ccc(I)cc4F)n(C)c(=O)c(C)c32)c1 [Trametinib] (partner 0.02 µM)")
0.258
>>> experimental_value("CCNC(=O)c1noc(-c2cc(C(C)C)c(O)cc2O)c1-c1ccc(CN2CCOCC2)cc1 [Luminespib] + C[C@]1(O)C[C@@H](c2nc(-c3ccc4ccc(-c5ccccc5)nc4c3)c3c(N)nccn32)C1 [Linsitinib] (partner 1 µM)")
0.57
